Entries and their Pressor activity
System: Rattus norvegicus
TEST_SUMMARY: Pressor activity of compound was assayed on urethane-anesthetized, phenoxybenzamine-treated rats
Type: functional
Parameters: unit not given here
Where a SMILES comes first, the peptide text is derived from it.

MOLECULE	Pressor activity
CC[C@H](C)[C@@H]1NC(=O)[C@H](Cc2ccccc2)NC(=O)[C@@H](N)CSSC[C@@H](C(=O)N2CCC[C@H]2C(=O)N[C@@H](CCCN=C(N)N)C(=O)N[C@@H](Cc2ccc(O)cc2)C(N)=O)NC(=O)[C@H](CC(N)=O)NC(=O)[C@H](CCC(N)=O)NC1=O (HELM PEPTIDE1{C.F.I.Q.N.C.P.R.Y.[am]}$PEPTIDE1,PEPTIDE1,1:R3-6:R3$$$V2.0)	0
CC[C@H](C)[C@@H]1NC(=O)[C@H](Cc2ccc(O)cc2)NC(=O)[C@@H](N)CSSC[C@@H](C(=O)N2CCC[C@H]2C(=O)N[C@@H](CCCN=C(N)N)C(=O)NCC(N)=O)NC(=O)[C@H](CC(N)=O)NC(=O)[C@H](CCC(N)=O)NC1=O [VASOTOCIN] (HELM PEPTIDE1{C.Y.I.Q.N.C.P.R.G.[am]}$PEPTIDE1,PEPTIDE1,1:R3-6:R3$$$V2.0)	160
CC[C@H](C)[C@@H]1NC(=O)[C@H](Cc2ccc(O)cc2)NC(=O)[C@@H](N)CSSC[C@@H](C(=O)N2CCC[C@H]2C(=O)N[C@@H](CCCN=C(N)N)C(=O)N[C@@H](Cc2ccc(O)cc2)C(N)=O)NC(=O)[C@H](CC(N)=O)NC(=O)[C@H](CCC(N)=O)NC1=O (HELM PEPTIDE1{C.Y.I.Q.N.C.P.R.Y.[am]}$PEPTIDE1,PEPTIDE1,1:R3-6:R3$$$V2.0)	0
CC[C@H](C)[C@@H]1NC(=O)[C@H](Cc2ccc(O)cc2)NC(=O)CCSSC[C@@H](C(=O)N2CCC[C@H]2C(=O)N[C@@H](CCCN=C(N)N)C(=O)N[C@@H](Cc2ccc(N)cc2)C(N)=O)NC(=O)[C@H](CC(N)=O)NC(=O)[C@H](CCC(N)=O)NC1=O (HELM PEPTIDE1{[O=C(CCS[*:3])[*:2]].Y.I.Q.N.C.P.R.[Nc1ccc(C[C@H](N[*:1])C(=O)[*:2])cc1].[am]}$PEPTIDE1,PEPTIDE1,1:R3-6:R3$$$V2.0)	0

---

Species: Rattus norvegicus
TEST_SUMMARY: Antidiuretic activity of compound was assayed on water-loaded rats
Format: functional, Urine
Where a SMILES comes first, the peptide text is derived from it. Bridges are numbered along the chain shown (N, C = ends). [ ]: non-standard residue; d: D form. The star is where a group is joined. Biotin = O=C1N[C@H]2[C@H](CS[C@H]2CCCCC(=O)*)N1; Phe(4-NH2) = Nc1ccc(C[C@H](N)C(=O)O)cc1; Mpa = O=C(O)CCS
This listing pairs compounds with measured Antidiuretic activity.
READOUT_TYPE: Antidiuretic activity (U/mg)

COMPOUND	READING
CC[C@H](C)[C@@H]1NC(=O)[C@H](Cc2ccc(O)cc2)NC(=O)CCSSC[C@@H](C(=O)N2CCC[C@H]2C(=O)N[C@@H](CCCN=C(N)N)C(=O)N[C@@H](Cc2ccc(NC(=O)CCCC[C@@H]3SC[C@@H]4NC(=O)N[C@@H]43)cc2)C(N)=O)NC(=O)[C@H](CC(N)=O)NC(=O)[C@H](CCC(N)=O)NC1=O ([Mpa]YIQNCPR[Phe(4-NH2)](Biotin)-NH2; disulfide 1-6)	23
CC[C@H](C)[C@@H]1NC(=O)[C@H](Cc2ccccc2)NC(=O)[C@@H](N)CSSC[C@@H](C(=O)N2CCC[C@H]2C(=O)N[C@@H](CCCN=C(N)N)C(=O)N[C@@H](Cc2ccc(O)cc2)C(N)=O)NC(=O)[C@H](CC(N)=O)NC(=O)[C@H](CCC(N)=O)NC1=O (HELM PEPTIDE1{C.F.I.Q.N.C.P.R.Y.[am]}$PEPTIDE1,PEPTIDE1,1:R3-6:R3$$$V2.0)	2.8
CC[C@H](C)[C@@H]1NC(=O)[C@H](Cc2ccc(O)cc2)NC(=O)CCSSC[C@@H](C(=O)N2CCC[C@H]2C(=O)N[C@@H](CCCN=C(N)N)C(=O)N[C@@H](Cc2ccc(N)cc2)C(N)=O)NC(=O)[C@H](CC(N)=O)NC(=O)[C@H](CCC(N)=O)NC1=O (HELM PEPTIDE1{[O=C(CCS[*:3])[*:2]].Y.I.Q.N.C.P.R.[Nc1ccc(C[C@H](N[*:1])C(=O)[*:2])cc1].[am]}$PEPTIDE1,PEPTIDE1,1:R3-6:R3$$$V2.0)	66

Source of measurements: ChEMBL document CHEMBL1124363
